# Study system: Hck (UniProt P08631)
# Sequence (P08631 whole entry, looked up): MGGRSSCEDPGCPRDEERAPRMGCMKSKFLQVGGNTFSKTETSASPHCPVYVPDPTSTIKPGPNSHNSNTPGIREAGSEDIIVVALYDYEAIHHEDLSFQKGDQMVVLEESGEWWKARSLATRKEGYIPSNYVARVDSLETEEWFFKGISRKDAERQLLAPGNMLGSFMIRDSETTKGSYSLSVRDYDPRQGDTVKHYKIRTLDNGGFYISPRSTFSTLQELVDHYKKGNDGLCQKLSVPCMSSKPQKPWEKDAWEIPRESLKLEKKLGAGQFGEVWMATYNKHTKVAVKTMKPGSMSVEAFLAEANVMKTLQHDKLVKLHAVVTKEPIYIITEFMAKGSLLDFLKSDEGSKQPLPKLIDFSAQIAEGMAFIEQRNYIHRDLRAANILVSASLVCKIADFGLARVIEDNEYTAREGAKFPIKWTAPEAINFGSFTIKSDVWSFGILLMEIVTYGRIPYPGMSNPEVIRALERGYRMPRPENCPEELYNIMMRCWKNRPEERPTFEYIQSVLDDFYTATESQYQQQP
# Assay protocol: phosphorylation enrichment, bacterial display (enrichment ratio); higher = better substrate or ligand; peptides without Tyr show the background;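 note: 11-residue human phosphosite peptides and single-mutation variants displayed on the E. coli surface, counted by deep sequencing, each peptide's frequency after selection divided by its frequency in the unselected input library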;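 note: frequency after pTyr selection over input frequency; kinase dosed for 20-30% of maximal phosphorylation in three min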
Kindly supply the reported phosphorylation enrichment values for the records listed here.
Give bare numbers.

Solved entries (count: 5):
Monomer sequence: ERDTVYSSSGV [NELL2_Y350_N347D]
phosphorylation enrichment: 1.5
--
Monomer sequence: LWQTIYNLEAE [TNNT2_Y251_S249T]
phosphorylation enrichment: 5.88
--
Monomer sequence: VFSTDCFRVGG [NTRK2_Y706_Y706C_YF]
phosphorylation enrichment: 0.685
--
Monomer sequence: KGSEGYLAATF [NF1_Y2503_YF]
phosphorylation enrichment: 0.416
--
Monomer sequence: DRFANYIEKVR [DES_Y122]
phosphorylation enrichment: 0.42

Respectfully, I request phosphorylation enrichment for each entry included below.
1. PSPMPYASCQM [FOXL2_Y215]
2. LTRDIYKNDYY [ROS1_Y2110_A2106T]
3. DYLEKYYKFGS [NNMT_Y24]
4. YRVAGYKTQGG [TIA1_Y383_E384K]

**A:**
1. 0.661
2. 1.48
3. 0.402
4. 0.366
